Tested on: iCell cardiomyocytes (human iPSC-derived cardiomyocytes)
Assay: Intracellular Ca2+ flux / beating parameters in iCell cardiomyocytes (FLIPR tetra), 90 min or 24 h
Assay type: cell-based
Conditions: Homo sapiens, Cardiomyocyte, 1.5 h, 0.01 µM; 0.00 µM = 100.00; read-out: cm.spacing.cv.90min
Counter-ions that a name gives are not always drawn.
metric: activity at 0.01 µM (%)
API: value field is a number in %; no unit string.

# input molecule: Oc1ccc(O)c(-c2ccc(Cl)cc2)c1 ; wanted: its activity at 0.01 µM
113

# input molecule: O=S(=O)(O)Oc1ccc(-c2cccc(Cl)c2)cc1Cl [4-yl PCB 11 sulfate] ; wanted: its activity at 0.01 µM
99.6

# input molecule: Oc1ccc(-c2ccc(Cl)cc2)cc1 ; wanted: its activity at 0.01 µM
120

# input molecule: Clc1ccc(-c2ccccc2)cc1 ; wanted: its activity at 0.01 µM
124

====

System: iPSC-CMs, iPSC-ECs and HUVECs phenotypes
Assay: ToxPi 2.0 integration of POD values and physicochemical descriptors
Design: species or system human
Conditions: ToxPi-scaled (0-1) score; iPSC cardiomyocytes, 90 min
Structures can show the parent of a compound that is named as a salt.
The label is T for cm.tc.90min below 0.8 and F for cm.tc.90min equal to or exceeding 0.8.

Look over these answered cases.
* COc1ccc(-c2cccc(Cl)c2)cc1Cl | T
* Clc1cc(Cl)c(-c2cc(Cl)c(Cl)cc2Cl)cc1Cl | T
* Oc1ccc(-c2ccc(Cl)cc2)cc1 | F
* O=S(=O)(O)Oc1cc(-c2ccccc2)ccc1Cl [3-PCB 3 sulfate] | T
* O=S(=O)(O)Oc1ccc(-c2ccc(Cl)cc2)cc1 [4'-PCB 3 sulfate] | T
* Oc1ccccc1-c1ccc(Cl)cc1 | T

// next entry
cm.tc.90min under 0.8? Item: Oc1cc(Cl)c(-c2cc(Cl)ccc2Cl)cc1Cl
F

====

Property: viability at 0.01 µM; scope: individual compounds
System: iCell cardiomyocytes (human iPSC-derived cardiomyocytes)
Test: High-content imaging of cytotoxicity and mitochondrial integrity in iPSC-CMs
Assay type: cell-based
Settings: Homo sapiens, Cardiomyocyte, 1.5 h, 0.01 µM; 0.00 µM = 100.00; read-out: cm.tc.90min
Where a name gives a salt, the structure may show the parent alone.
API: value field is a number in %; no unit string.

Use these answered entries as a reference point.
• Oc1ccc(-c2ccc(Cl)cc2)cc1 = 98.1
• Clc1cccc(-c2cccc(Cl)c2)c1 = 99
• COc1ccc(-c2cccc(Cl)c2)cc1Cl = 89.6
• Oc1ccc(-c2cccc(Cl)c2)cc1Cl = 94.7
• Oc1ccc(O)c(-c2ccc(Cl)cc2)c1 = 104

# input compound: O=S(=O)(O)Oc1cccc(-c2ccc(Cl)cc2)c1 [3'-yl PCB 3 sulfate] ; wanted: its viability at 0.01 µM
99.9

# input compound: O=S(=O)(O)Oc1ccc(-c2cccc(Cl)c2)cc1Cl [4-yl PCB 11 sulfate] ; wanted: its viability at 0.01 µM
100

====

Tested on: iPSC-CMs, iPSC-ECs and HUVECs phenotypes
Test: ToxPi 2.0 integration of POD values and physicochemical descriptors
Set-up: species or system human
Settings: ToxPi-scaled (0-1) score; HUVECs, 24 h
Property: huvec.cyto.24hr; scope: individual compounds
Reply with just the number.

• Clc1ccc(Cl)c(-c2c(Cl)ccc(Cl)c2Cl)c1 [PCB 95, 2,2′,3,5′,6-pentachlorobiphenyl] = 0.9485
• Oc1cc(Cl)c(-c2cc(Cl)ccc2Cl)cc1Cl [4-OH-PCB 52] = 0.4769
• Clc1ccc(Cl)c(-c2cc(Cl)ccc2Cl)c1 [PCB 52, 2,2′,5,5′-tetrachlorobiphenyl] = 0.5178

# input compound: Clc1cc(Cl)c(-c2cc(Cl)c(Cl)cc2Cl)cc1Cl [PCB 153, 2,2′,4,4′,5,5′-hexachlorobiphenyl] ; wanted: its huvec.cyto.24hr
0.8978

# input compound: Oc1ccc(-c2cccc(Cl)c2)cc1Cl [4-OH-PCB 11] ; wanted: its huvec.cyto.24hr
0.4438

# input compound: COc1ccc(-c2cccc(Cl)c2)cc1Cl [4-OMe-PCB 11, 4-methoxy-3,3′-dichlorobiphenyl] ; wanted: its huvec.cyto.24hr
0.2668

# input compound: Oc1cccc(-c2ccc(Cl)cc2)c1 [3'-OH-PCB 3] ; wanted: its huvec.cyto.24hr
0.4672

# input compound: COc1ccc(-c2ccc(Cl)cc2)cc1 [4'-OMe-PCB 3, 4′-methoxy-4-chlorobiphenyl] ; wanted: its huvec.cyto.24hr
0.2539
